test system: UACC-257 melanoma; assay: NCI tumour cell line growth inhibition, 48 h
Could you please report measured TGI for the items listed next?

Example entries begin here.
N#C/C(=C\c1ccc(F)cc1)c1nc(-c2cc3ccccc3oc2=O)cs1
65.9 µM
O=C1[C@H]2ON(c3ccccc3)C(c3ccc([N+](=O)[O-])cc3)[C@H]2C(=O)N1c1ccc(Cc2ccc(N3C(=O)[C@@H]4ON(c5ccccc5)C(c5ccc([N+](=O)[O-])cc5)[C@@H]4C3=O)cc2)cc1 (stereo partly drawn)
> 100 µM
NS(=O)(=O)OC[C@H]1C[C@@H](Nc2ccnc3cc(-c4cccc(SC(F)(F)F)c4)nn23)[C@H](O)[C@@H]1O
0.108 µM
NNC(=O)C(=O)N/N=C(\CCCC(=O)Nc1ccc(Cl)cc1)CC(=O)c1ccc(F)cc1
> 100 µM
COc1cc(OC)cc(OCc2nc3cc(C(F)(F)F)ccc3nc2-c2ccccc2)c1
> 100 µM

State the recorded TGI for every item in the following list.
1. COc1ccccc1Nc1cc(O)c2c(=O)cc(-c3ccccc3)oc2c1
2. CCc1cccc(C(C)C)c1NC(=O)C(=O)C1C(=O)Nc2ccccc2S1=O (stereo not drawn)

(A)
["63.5 µM", "> 100 µM"]

(Q) Please indicate TGI recorded for CC(=O)OCCn1cnc2c(NCC=C(C)C)ncnc21
(A) > 100 µM

* * *

test system: RPMI-8226 leukemia; test: NCI tumour cell line growth inhibition, 48 h; in the data active = GI50 below about 0.43 µM; inactive = the rest
Form entry, call: pick from active, inactive

Examples from the recorded data:
Cc1onc(-c2ccccc2)c1C(=O)N/N=C/c1cc(Cl)cc(Cl)c1O
inactive
Nc1nc(/C=C\c2ccc([N+](=O)[O-])s2)nc(N2CCN(c3ccccc3)CC2)n1
inactive
O=C1NC(=C(Cl)Cl)/C(=N/S(=O)(=O)N2CCCCC2)N1
inactive
COc1c/c(=C2\C=c3ccccc3=N2)[nH]/c1=C\c1[nH]c(C)cc1C
active
COc1ccc(C(=O)C(CN(C)C)CN(C)C)cc1
inactive

(Q) State the result this test recorded for O=c1oc2ccc(I)cc2c(=O)n1-c1ccc(Br)cc1F .
(A) active

* * *

tested on: MDA-MB-231 breast; assay: NCI tumour cell line growth inhibition, 48 h; in the data active = GI50 below about 0.43 µM; inactive = the rest
Form entry, call: pick from active, inactive

Examples from the recorded data:
COc1ccc2ncn(-c3cc(O[C@H](C)c4ccccc4C(F)(F)F)c(C(N)=O)s3)c2c1
active
CNC(=O)c1ccc(N2C(=S)N(c3cnc(C#N)c(C(F)(F)F)c3)C(=O)C23CCC3)cc1F
inactive
CC(C)(C)C(=O)OCOP(=O)(NCc1ccccc1)C1CCCN(O)C1=O (stereo not given)
inactive
CC1Cc2c(Cl)ncnc2N(C)c2ccc(Cl)cc21 (stereo not given)
active
COc1ccc(C(=O)C(CN(C)C)CN(C)C)cc1
inactive
COc1ccccc1Nc1cc(O)c2c(=O)cc(-c3ccccc3)oc2c1
inactive
COc1ccc(/C=C\c2cc(OC)c(OC)c(OC)c2)cc1OCC(=O)Nc1nc2ccc(F)cc2s1
inactive
CNC(=O)c1c(C)oc2cc(Oc3ncnc4cc(OC)c(OC)cc34)ccc12
inactive
Oc1c(Cl)cc(Cl)c(Cl)c1CNCCNCc1c(O)c(Cl)cc(Cl)c1Cl
inactive

(Q) State the result this test recorded for O=C1NC(=C(Cl)Cl)/C(=N/S(=O)(=O)N2CCCCC2)N1 .
(A) inactive

* * *

tested on: HOP-62 NSCLC; assay: NCI tumour cell line growth inhibition, 48 h
Where a SMILES comes first, the peptide text is derived from it. Bridges are numbered along the chain shown (N, C = ends). [ ]: non-standard residue; d: D form. Aib = CC(C)(N)C(=O)O; βAla = NCCC(=O)O
measured.quantity: TGI

COc1ccccc1Nc1cc(O)c2c(=O)cc(-c3ccccc3)oc2c1
> 100 µM
c1csc(-c2nn3c(C45CC6CC(CC(C6)C4)C5)nnc3s2)c1
> 100 µM
CCc1cccc(C(C)C)c1NC(=O)C(=O)C1C(=O)Nc2ccccc2S1=O (configuration not stated)
> 100 µM
CC1(C)OC2C(COC(c3ccccc3)(c3ccccc3)c3ccccc3)OC(c3c[nH]c4c(N)ncnc34)C2O1 (configuration not stated)
16.1 µM
CC1(C)NC(=O)C(NC(=O)C(N)CC(=O)O)CCCCNC(=O)CCNC1=O (configuration not stated) (H-DK[Aib][βAla]; lactam 2-C; configuration not given here)
> 100 µM
CC(=O)Nc1ccc(/C=C/C(=O)c2sc(-c3cccnc3)nc2C)cc1
> 100 µM
O=c1ccc2ccc(OP(=O)(O)O)cc2o1
> 100 µM
Cc1c(C)c2ccc3oc4ccccc4c3c2oc1=O
> 100 µM

State the recorded TGI for every item in the following list.
1. C=C[C@@H](C)[C@]1(C(=O)OC)CCCC12OCCO2
2. C=C(C)C12CC3CC(/C(=N/O)C(C1)/C3=N\O)[C@@]2(C)O (some centres not stated)
3. O=C(COc1ccc(Cl)c(Cl)c1)Nc1ccc[n+](Cc2ccc(S(=O)(=O)F)c(Cl)c2)c1

(A)
1: > 100 µM; 2: > 100 µM; 3: > 100 µM

State the recorded TGI for every item in the following list.
1. O=C1[C@H]2ON(c3ccccc3)C(c3ccc([N+](=O)[O-])cc3)[C@H]2C(=O)N1c1ccc(Cc2ccc(N3C(=O)[C@@H]4ON(c5ccccc5)C(c5ccc([N+](=O)[O-])cc5)[C@@H]4C3=O)cc2)cc1 (some centres not stated)
2. Cc1ccc(CC(Cc2ccccc2C)C(=O)O)c(C(=O)O)c1 (configuration not stated)
3. COC(=O)c1cc2c(=O)n(C)c3ccccc3n2c1C(=O)OC
4. Cc1ccc2c(c1)SC1=Nc3sc4cc(C)ccc4[n+]3CN12

(A)
1. > 100 µM
2. > 100 µM
3. 36.9 µM
4. 54.6 µM

* * *

test system: OVCAR-4 ovarian; test: NCI tumour cell line growth inhibition, 48 h
measured.quantity: TGI

Example entries begin here.
CC(C)N(C(=O)C12C3C4C5(C#N)C3C1(C#N)C5C42C#N)C(C)C (centres undefined)
> 100 µM
NS(=O)(=O)OC[C@H]1C[C@@H](Nc2ccnc3cc(-c4cccc(SC(F)(F)F)c4)nn23)[C@H](O)[C@@H]1O
0.11 µM
CN(C)C(C1=C(O)C(c2ccccc2)N(c2ccccc2)C1=O)N1CCOCC1 (centres undefined)
> 10 µM
CC[C@H](C)[C@H](NC(=O)[C@H]1CCCCN1C)C(=O)N(C)[C@H](C[C@@H](OC(C)=O)c1cccc(C(=O)N[C@@H](Cc2ccccc2)C[C@H](C)C(=O)OC)n1)C(C)C
> 25 µM
CC(C)(C)C(=O)OCOP(=O)(NCc1ccccc1)C1CCCN(O)C1=O (centres undefined)
71.9 µM

State the recorded TGI for every item in the following list.
1. OC12c3ccccc3C1CCCCC2N1CCCC1 (centres undefined)
2. Cc1ccc(C)c(N2C(=O)C(=O)C(c3nc4ccccc4s3)/C(=N/N)C2=O)c1 (centres undefined)
3. COc1c/c(=C2\C=c3ccccc3=N2)[nH]/c1=C\c1[nH]c(C)cc1C
4. COc1cccc(/C=N/n2c(Cc3ccccc3)n[nH]c2=O)c1

(A)
["> 100 µM", "> 100 µM", "4.83 µM", "> 100 µM"]

* * *

Could you please report measured TGI for the items listed next?
tested on: SF-268 CNS; experiment: NCI tumour cell line growth inhibition, 48 h

Cc1cc(S(=O)(=O)NC2=NCc3nc4ccccc4n32)c(S)cc1Cl
> 100 µM

State the recorded TGI for every item in the following list.
1. Cc1ccc(C)n1-c1ccccc1C1C=Cn2c(=O)nnc3c(OC(C)C)c(OC(C)C)c(O)c1c32 (stereo unspecified)
2. c1ccc2c(CSCc3cccc4ccccc34)cccc2c1
3. CCN(CC)CCCNc1nccc2c(C)c3c(cc12)c1cnccc1n3C

(A)
1. > 100 µM
2. > 100 µM
3. 1.69 µM

State the recorded TGI for every item in the following list.
1. CCCCCCCCCCCCCCCC1=NCC[N+]1(CCO)CCO
2. O=c1c2c(nc3n1CCS3)[nH]c1cc([N+](=O)[O-])ccc12

(A)
1: 3.46 µM; 2: > 100 µM

* * *

system: UACC-62 melanoma; test: NCI tumour cell line growth inhibition, 48 h; in the data active means GI50 below about 0.43 µM; inactive means the rest
Form entry, call: pick from active, inactive

Cc1cnc2n1S(=O)(=O)c1cc(C(=O)Nc3cccc4nsnc34)c(Cl)cc1S2
inactive

(Q) State the result this test recorded for Fc1ccc(-c2c(-c3ccncc3)nc3n2CCS3)cc1 .
(A) inactive

(Q) State the result this test recorded for C[C@@H](Oc1cc(-n2cnc3ccc(OC4CCN(C)CC4)cc32)sc1C(N)=O)c1ccccc1Cl .
(A) active

(Q) State the result this test recorded for O=c1oc2ccc(I)cc2c(=O)n1-c1ccc(Br)cc1F .
(A) active

(Q) State the result this test recorded for CN[C@H]1CN(c2ccc3c(=O)c(C(=O)O)cn(-c4nccs4)c3n2)C[C@@H]1OC .
(A) active

(Q) State the result this test recorded for COc1ccc(/C=C\c2cc(OC)c(OC)c(OC)c2)cc1OCC(=O)Nc1nc2ccc(F)cc2s1 .
(A) inactive

(Q) State the result this test recorded for CCc1ccc(Oc2c(-c3ccc(OCc4ccc(Cl)cc4)cc3O)n[nH]c2C(F)(F)F)cc1 .
(A) inactive

(Q) State the result this test recorded for O=C1N[C@@H]2[C@@H](O)[C@@H](O)[C@H](O)C[C@H]2c2cc3c(c(O)c21)OCCO3 .
(A) active

Source listed as PubChem BioAssay (NCI).
